Examples of binders with documented ratio (OD450 to WT OD450) follow.
- tgt: Peptide 1593 (…) (Mycobacterium tuberculosis)
- experiment: ELISA, NNK clone supernatant on coated peptide

Query string: Tell us which ratio (OD450 to WT OD450) value is on record for 65D3 chimeric Fab, NNK library L5 mutant S to F (VL S27F) (Fab, V domains shown) VH: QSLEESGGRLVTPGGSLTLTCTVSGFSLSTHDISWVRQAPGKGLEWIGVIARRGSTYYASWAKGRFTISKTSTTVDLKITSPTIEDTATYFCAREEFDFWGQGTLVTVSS VL: AVLTQTASPVSAAVGGTVTISCQSSQFVYNNKELSWFQQKPGQPPKLLISYASTLASGVPSRFKGSGSGTQFTLTISDLECDDAATYYCLGGYASTIDMWAFGGGTEVVVK
Result string: 1.43 fold of WT

Further cases:
Query string: Answer with reported ratio (OD450 to WT OD450) of 65D3 chimeric Fab, NNK library L20 mutant S to H (VL S57H) (Fab, V domains shown) VH: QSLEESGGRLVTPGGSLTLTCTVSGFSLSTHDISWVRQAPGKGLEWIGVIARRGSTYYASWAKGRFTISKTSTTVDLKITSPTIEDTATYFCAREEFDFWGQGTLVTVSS VL: AVLTQTASPVSAAVGGTVTISCQSSQSVYNNKELSWFQQKPGQPPKLLISYASTLAHGVPSRFKGSGSGTQFTLTISDLECDDAATYYCLGGYASTIDMWAFGGGTEVVVK
Result string: 1.25 fold of WT

Query string: # return recorded ratio (OD450 to WT OD450) for input 65D3 chimeric Fab, NNK library L20 mutant S to T (L-S57T) (Fab, V domains shown) VH: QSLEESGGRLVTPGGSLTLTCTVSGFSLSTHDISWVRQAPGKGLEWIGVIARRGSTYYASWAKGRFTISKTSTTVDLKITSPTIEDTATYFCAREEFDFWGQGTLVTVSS VL: AVLTQTASPVSAAVGGTVTISCQSSQSVYNNKELSWFQQKPGQPPKLLISYASTLATGVPSRFKGSGSGTQFTLTISDLECDDAATYYCLGGYASTIDMWAFGGGTEVVVK
Result string: 2.05 fold of WT

Query string: Using known records, supply ratio (OD450 to WT OD450) for 65D3 chimeric Fab, NNK library L5 mutant S to T (VL S27T) (Fab, V domains shown) VH: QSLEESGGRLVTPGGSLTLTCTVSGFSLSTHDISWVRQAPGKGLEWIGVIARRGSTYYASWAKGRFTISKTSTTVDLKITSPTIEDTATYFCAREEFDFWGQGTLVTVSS VL: AVLTQTASPVSAAVGGTVTISCQSSQTVYNNKELSWFQQKPGQPPKLLISYASTLASGVPSRFKGSGSGTQFTLTISDLECDDAATYYCLGGYASTIDMWAFGGGTEVVVK
Result string: 1.43 fold of WT
